assay: Half life in Sprague-Dawley rat at 6 mg/kg, po; format: ADME, organism-based; set-up: dose 6 mg/kg, route oral; conditions: in vivo
observable: half-life (h)
Lab book: enter the figure in h, no units written.

Query block: Which half-life value belongs to "C[C@](O)(COc1ccc(F)cc1)C(=O)N1CCc2c(C#N)cccc21" ?
Result block: 5

----------
target: Voltage-gated inwardly rectifying potassium channel KCNH2 (Homo sapiens)
Sequence (Q12809 whole entry): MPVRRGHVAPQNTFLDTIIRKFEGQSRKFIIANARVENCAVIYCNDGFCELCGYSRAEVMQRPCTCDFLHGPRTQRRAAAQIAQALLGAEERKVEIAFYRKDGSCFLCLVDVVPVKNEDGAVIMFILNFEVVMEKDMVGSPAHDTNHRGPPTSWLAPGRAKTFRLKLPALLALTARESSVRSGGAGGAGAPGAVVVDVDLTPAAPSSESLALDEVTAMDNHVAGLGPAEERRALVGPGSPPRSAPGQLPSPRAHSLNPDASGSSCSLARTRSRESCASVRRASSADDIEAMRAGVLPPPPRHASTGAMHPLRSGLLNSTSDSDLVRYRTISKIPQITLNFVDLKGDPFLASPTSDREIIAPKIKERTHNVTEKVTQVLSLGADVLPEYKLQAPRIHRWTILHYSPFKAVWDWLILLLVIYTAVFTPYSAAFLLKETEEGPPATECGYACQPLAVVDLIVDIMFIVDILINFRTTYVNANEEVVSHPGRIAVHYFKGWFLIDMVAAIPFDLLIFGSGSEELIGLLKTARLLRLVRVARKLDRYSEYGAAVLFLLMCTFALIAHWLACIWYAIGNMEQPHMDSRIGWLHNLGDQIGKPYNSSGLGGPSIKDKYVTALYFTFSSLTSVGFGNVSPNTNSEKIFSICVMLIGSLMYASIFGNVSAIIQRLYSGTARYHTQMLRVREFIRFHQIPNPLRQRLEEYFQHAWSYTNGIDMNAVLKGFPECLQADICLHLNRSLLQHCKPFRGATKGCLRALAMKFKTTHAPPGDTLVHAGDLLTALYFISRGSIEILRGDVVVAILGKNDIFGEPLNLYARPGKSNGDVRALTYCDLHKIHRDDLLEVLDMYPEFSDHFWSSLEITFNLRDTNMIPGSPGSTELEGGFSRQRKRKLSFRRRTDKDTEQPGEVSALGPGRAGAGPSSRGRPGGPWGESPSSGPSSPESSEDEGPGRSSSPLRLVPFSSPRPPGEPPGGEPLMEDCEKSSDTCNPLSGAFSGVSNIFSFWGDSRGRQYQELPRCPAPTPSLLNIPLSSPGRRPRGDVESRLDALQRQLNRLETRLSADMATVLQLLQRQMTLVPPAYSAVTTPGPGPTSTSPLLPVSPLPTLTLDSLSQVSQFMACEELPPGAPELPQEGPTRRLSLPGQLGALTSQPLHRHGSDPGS
observable: IC50

Query block: Reported IC50 for Voltage-gated inwardly rectifying potassium channel KCNH2 (Homo sapiens), given "C[C@](O)(COc1ccc(F)cc1)C(=O)N1CCc2c(C#N)cccc21" ?
Result block: > 100 µM

----------
target: UniProt:P10275; assay: Binding affinity to human AR NTD (1 to 561 aa) expressed in CV1 cells coexpressing human AR-LBD (644-919 aa) assessed as N/C-termini interaction by androgenic assay; assay type: cell-based, CV-1
Hi! Could you tag entries with EC50 below 1 nM as Fulfilled, and those at or above as Not fulfilled? Much appreciated.

Recorded results for 3 compounds are shown here.
[[record]]
molecule = "COc1ccc(OC[C@](C)(O)C(=O)N2CCc3c(C#N)cccc32)cc1"
system_under_test = "UniProt:P10275"
classification = "Not fulfilled"

[[record]]
molecule = "C[C@](O)(COc1ccc(F)cc1C#N)C(=O)N1CCc2c(C#N)cccc21"
system_under_test = "UniProt:P10275"
classification = "Fulfilled"

[[record]]
molecule = "C[C@](O)(COc1ccccc1C(F)(F)F)C(=O)N1CCc2c(C#N)cccc21"
system_under_test = "UniProt:P10275"
classification = "Not fulfilled"


Query block: Field: below-cutoff. Rule: recorded EC50 strictly less than 1 nM. Subject: "COC(=O)c1ccc(OC[C@](C)(O)C(=O)N2CCc3c(C#N)cccc32)cc1"
Result block: Not fulfilled

Query block: Field: below-cutoff. Rule: recorded EC50 strictly less than 1 nM. Subject: "C[C@](O)(COc1ccccc1F)C(=O)N1CCc2c(C#N)cccc21"
Result block: Not fulfilled

Query block: Field: below-cutoff. Rule: recorded EC50 strictly less than 1 nM. Subject: "C[C@](O)(COc1cccc(Cl)c1)C(=O)N1CCc2c(C#N)cccc21"
Result block: Not fulfilled

Query block: Field: below-cutoff. Rule: recorded EC50 strictly less than 1 nM. Subject: "C[C@](O)(COc1ccc(F)cc1)C(=O)N1CCc2c(C#N)cccc21"
Result block: Not fulfilled

Query block: Field: below-cutoff. Rule: recorded EC50 strictly less than 1 nM. Subject: "C[C@](O)(COc1ccc(Br)cc1F)C(=O)N1CCc2c(C#N)cccc21"
Result block: Fulfilled

----------
biological target: Androgen receptor (Homo sapiens); experiment: Displacement of [3H]mibolerone from full length human AR expressed in COS cells after 3.5 hrs by liquid scintillation counting; type: cell-based
Sequence (P10275 whole entry, the tested form may be a part): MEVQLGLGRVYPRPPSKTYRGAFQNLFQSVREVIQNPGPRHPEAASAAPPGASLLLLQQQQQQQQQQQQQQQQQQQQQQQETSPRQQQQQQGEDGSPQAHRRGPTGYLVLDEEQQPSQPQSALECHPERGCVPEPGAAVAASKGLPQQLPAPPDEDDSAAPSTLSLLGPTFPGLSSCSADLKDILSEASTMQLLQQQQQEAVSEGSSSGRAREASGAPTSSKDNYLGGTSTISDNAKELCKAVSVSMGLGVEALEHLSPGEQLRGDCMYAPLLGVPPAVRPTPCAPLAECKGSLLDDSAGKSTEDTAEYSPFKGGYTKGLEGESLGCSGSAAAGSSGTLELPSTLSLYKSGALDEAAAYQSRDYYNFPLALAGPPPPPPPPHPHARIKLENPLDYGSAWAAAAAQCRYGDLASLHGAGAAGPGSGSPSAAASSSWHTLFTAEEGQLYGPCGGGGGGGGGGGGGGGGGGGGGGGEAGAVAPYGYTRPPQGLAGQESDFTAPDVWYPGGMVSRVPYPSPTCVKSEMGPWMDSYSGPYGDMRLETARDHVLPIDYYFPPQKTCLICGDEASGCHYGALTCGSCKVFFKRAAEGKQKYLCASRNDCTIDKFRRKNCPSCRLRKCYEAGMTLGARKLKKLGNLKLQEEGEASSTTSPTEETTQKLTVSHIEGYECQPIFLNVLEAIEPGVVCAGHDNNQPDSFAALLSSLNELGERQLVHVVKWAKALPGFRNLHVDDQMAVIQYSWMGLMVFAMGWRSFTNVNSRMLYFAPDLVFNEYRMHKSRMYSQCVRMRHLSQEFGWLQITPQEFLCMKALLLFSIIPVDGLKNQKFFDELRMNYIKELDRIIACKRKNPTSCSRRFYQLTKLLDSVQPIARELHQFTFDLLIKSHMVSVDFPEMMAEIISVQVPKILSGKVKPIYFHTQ
pIC50 for assorted compounds
Give only the number. pIC50 is defined as minus log10 of concentration in molar units.

[[record]]
molecule = "C[C@](O)(COc1ccc(F)cc1Br)C(=O)N1CCc2c(C#N)cccc21"
measured = 7.94

[[record]]
molecule = "C[C@](O)(COc1ccccc1C#N)C(=O)N1CCc2c(C#N)cccc21"
measured = 7.84

[[record]]
molecule = "C[C@](O)(COc1ccc(F)cc1)C(=O)N1CCc2c(C#N)cccc21"
measured = 7.90

[[record]]
molecule = "COc1cc(C#N)ccc1OC[C@](C)(O)C(=O)N1CCc2c(C#N)cccc21"
measured = 7.79


Okay, next one:
Query block: Which pIC50 value belongs to "C[C@](O)(COc1ccc(Cl)cc1Cl)C(=O)N1CCc2c(C#N)cccc21" ?
Result block: 8.04

----------
biological target: Androgen receptor (Homo sapiens); assay: Binding affinity to human AR NTD (1 to 561 aa) expressed in CV1 cells coexpressing human AR-LBD (644-919 aa) assessed as N/C-termini interaction by androgenic assay; format: cell-based, CV-1
observable: EC50 (nM)
Lab book: enter the figure in nM, no units written.

Answered examples (5):
[[record]]
molecule = "Cc1cc(F)ccc1OC[C@](C)(O)C(=O)N1CCc2c(C#N)cccc21"
measured = 72.2

[[record]]
molecule = "C[C@](O)(COc1ccc(C#N)cc1Br)C(=O)N1CCc2c(C#N)cccc21"
measured = 0.41

[[record]]
molecule = "C[C@](O)(COc1ccc(Br)cc1)C(=O)N1CCc2c(C#N)cccc21"
measured = 7.6

[[record]]
molecule = "COc1ccc(OC[C@](C)(O)C(=O)N2CCc3c(C#N)cccc32)c(Cl)c1"
measured = 54.1

[[record]]
molecule = "C[C@](O)(COc1ccc(Cl)cc1)C(=O)N1CCc2c(C#N)cccc21"
measured = 172


Query block: Which EC50 value belongs to "C[C@](O)(COc1ccccc1Cl)C(=O)N1CCc2c(C#N)cccc21" ?
Result block: 4820

Query block: Which EC50 value belongs to "COc1cc(C#N)ccc1OC[C@](C)(O)C(=O)N1CCc2c(C#N)cccc21" ?
Result block: 2120

Query block: Which EC50 value belongs to "C[C@](O)(COc1ccccc1C#N)C(=O)N1CCc2c(C#N)cccc21" ?
Result block: 0.77

Query block: Which EC50 value belongs to "C[C@](O)(COc1ccc(Cl)cc1Cl)C(=O)N1CCc2c(C#N)cccc21" ?
Result block: 1.4

Values compiled from ChEMBL document CHEMBL3232788.
